Target: T1, Recombinant P-selectin (R&D Systems) (human, UniProt P16109 42-771)
T1 construct: extracellular domain; also called recombinant human P-selectin; recombinant truncated form of P-selectin
T1 sequence (looked up): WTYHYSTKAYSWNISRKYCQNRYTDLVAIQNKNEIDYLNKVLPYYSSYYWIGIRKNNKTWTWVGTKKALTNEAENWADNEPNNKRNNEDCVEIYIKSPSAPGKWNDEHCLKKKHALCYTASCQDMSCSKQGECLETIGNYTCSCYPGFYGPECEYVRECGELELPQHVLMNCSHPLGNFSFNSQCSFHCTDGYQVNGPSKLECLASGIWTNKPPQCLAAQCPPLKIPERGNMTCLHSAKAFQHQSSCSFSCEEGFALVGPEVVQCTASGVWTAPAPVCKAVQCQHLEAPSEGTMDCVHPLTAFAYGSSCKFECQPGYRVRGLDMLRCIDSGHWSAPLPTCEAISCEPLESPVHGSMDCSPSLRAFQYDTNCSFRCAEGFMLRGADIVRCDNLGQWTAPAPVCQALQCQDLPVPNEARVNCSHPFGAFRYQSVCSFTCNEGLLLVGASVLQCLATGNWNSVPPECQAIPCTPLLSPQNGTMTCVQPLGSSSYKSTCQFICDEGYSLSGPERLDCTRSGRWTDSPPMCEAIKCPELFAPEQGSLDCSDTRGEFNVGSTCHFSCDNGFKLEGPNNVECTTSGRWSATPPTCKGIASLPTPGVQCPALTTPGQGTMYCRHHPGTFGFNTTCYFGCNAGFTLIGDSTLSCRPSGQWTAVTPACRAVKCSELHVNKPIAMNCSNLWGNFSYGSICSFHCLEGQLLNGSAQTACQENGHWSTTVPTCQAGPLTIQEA
Assay: SPR, BIACORE 2000; antibody captured by anti-human Fcγ, recombinant P-selectin 0-50 nM injected; 1:1 Langmuir fit
Please provide measured pKd for the entries that follow.
Note on pKd: it is the negative log10 of concentration, concentration in mol/L.

Incoming: Entry HuMab 005 (antibody, V domains shown, Human monoclonal antibody; also called antibody 005) VH: QVQLVESGGGVVQPGRSLRLSCAASGFTFSSYGMHWVRQAPGEGLEWVAVIWYDGTFKYYADSVKGRFTISRDNSKNTLSLLMNSLRAEDTAVYYCTRGGYYGSGSSFDYYYYGMDVWGQGTTVTVSS VL: EIVLTQSPATLSLSPGERATLSCRASQSVSSYLAWYQQKPGQAPRLLIYDASNRATGIPARFSGSGSGTDFTLTISSLEPEDFAVYYCQQRSNWPPVTFGQGTRLEIK : reported pKd = ?
Outgoing: 9.46

Incoming: One more binder: HuMab 001 (antibody of cell line hu-Mab<P-selectin>LC 1004-001, DSM ACC2640) (antibody, V domains shown, Human monoclonal antibody from transgenic mice; kappa light and gamma1 heavy chains by the cloning section; also called antibody 001; HuMab 1004-001) VH: EVQLVESGGGLVQPGGSLRLSCAASGFTFSSYDMHWVRQATGKGLEWVSGITTAGDTYYPGSVKGRFTISRENAKNSLYLQMNSLRAGDTAVYYCARGRISMDRGVKNNWFDPWGQGTLVTVSS VL: EIVLTQSPATLSLSPGERATLSCRASQSVSSYLAWYQQKPGQAPRLLIYDASNRATGIPARFSGSGSGTDFTLTISSLEPEDFAVYYCQQRNNWPLTFGGGTKVEIK
Outgoing: 9.16

Incoming: One more binder: HuMab 003 (antibody, V domains shown, Human monoclonal antibody; also called antibody 003; LC 1004-003) VH: QVQLVESGGGVVQPGRSLRLSCAASGFTFSSYGMHWVRQAPGEGLEWVAVIWYDGTFKYYADSVKGRFTISRDNSKNTLSLLMNSLRAEDTAVYYCTRGGYYGSGSSFDYYYYGMDVWGQGTTVTVSS VL: DIQMTQSPSSLSASVGDRVTITCRASQGISSWLAWYQQKPEKAPKSLIYAASSLQSGVPSRFSGSGSGTDFTLTISSLQPEDFATYYCQQYHSYPLTFGGGTKVEIK
Outgoing: 9.36

Incoming: One more binder: HuMab 017 (antibody of cell line hu-Mab<P-selectin>LC 1004-017, DSM ACC2642) (antibody, V domains shown, Human monoclonal antibody; also called antibody 017) VH: QPQLVQSGAEVKKPGASVKVSCKVSGNTLTELSMHWVRQAPGKGLEWMGGFDPENGEAIYAQKFQGRVTMTADTSTDTAYMDLSSLRSEDTAVYYCATDLAGGSDFYYYGLDVWGQGTTVTVSS VL: AIQLTQSPSSLSASVGDRVTITCRASQGISSALAWYQQKPGKAPKLLIYDASSLESGVPSRFSGSGSGTDFTLTISSLQPEDFATYYCQQFNSYPYTFGQGTKLEIK
Outgoing: 10.75
